Source of measurements: ChEMBL document CHEMBL4152276

test system: SGC-7901; assay: Antiproliferative activity against human SGC7901 cells after 24 hrs by MTT assay; format: functional, cell-based; conditions: SGC-7901, 24 h
Label Satisfied when IC50 is strictly below 10 µM; at or above that, label Not satisfied.

INSERT INTO assay_data (molecule, targetortestsystem, label) VALUES
  ('O=C(NNc1ccccc1F)c1ccc(NS(=O)(=O)c2cnc(O)nc2O)cc1', 'SGC-7901', 'Not satisfied');

Exercise: Lab log: compare recorded IC50 with 10 µM; is it strictly lower for "O=C(NNC(=O)c1cccc(Cl)c1)c1ccc(NS(=O)(=O)c2cnc(O)nc2O)cc1" ?
Key: Satisfied

Exercise: Lab log: compare recorded IC50 with 10 µM; is it strictly lower for "Cc1ccccc1C(=O)NNC(=O)c1ccccc1NS(=O)(=O)c1cnc(O)nc1O" ?
Key: Not satisfied

Exercise: Lab log: compare recorded IC50 with 10 µM; is it strictly lower for "O=C(NNc1ccccc1F)c1cccc(NS(=O)(=O)c2cnc(O)nc2O)c1" ?
Key: Not satisfied

Exercise: Lab log: compare recorded IC50 with 10 µM; is it strictly lower for "Cc1ccccc1NNC(=O)c1ccccc1NS(=O)(=O)c1cnc(O)nc1O" ?
Key: Not satisfied

Exercise: Lab log: compare recorded IC50 with 10 µM; is it strictly lower for "O=C(NNc1ccccc1Cl)c1cccc(NS(=O)(=O)c2cnc(O)nc2O)c1" ?
Key: Satisfied

* * *

The reader will find reported IC50 values listed item by item below.
system: OVCAR-3; assay: Antiproliferative activity against human OVCAR3 cells after 24 hrs by MTT assay; assay type: functional, cell-based; conditions: OVCAR-3, 24 h

Exercise: Let me know recorded IC50 for "Cc1ccccc1C(=O)NNC(=O)c1cccc(NS(=O)(=O)c2cnc(O)nc2O)c1" , thanks.
Key: > 20 µM

Exercise: Let me know recorded IC50 for "Cc1ccccc1NNC(=O)c1ccccc1NS(=O)(=O)c1cnc(O)nc1O" , thanks.
Key: > 20 µM

Exercise: Let me know recorded IC50 for "CCCCOc1ccc(C(=O)NNC(=O)c2cccc(NS(=O)(=O)c3cnc(O)nc3O)c2)cc1" , thanks.
Key: 9.2 µM

Exercise: Let me know recorded IC50 for "Cc1ccccc1C(=O)NNC(=O)c1ccc(NS(=O)(=O)c2cnc(O)nc2O)cc1" , thanks.
Key: > 20 µM

Exercise: Let me know recorded IC50 for "O=C(NNc1cccc(Cl)c1)c1ccc(NS(=O)(=O)c2cnc(O)nc2O)cc1" , thanks.
Key: 8.41 µM

Exercise: Let me know recorded IC50 for "O=C(NNc1ccccc1F)c1cccc(NS(=O)(=O)c2cnc(O)nc2O)c1" , thanks.
Key: 17 µM

* * *

test system: OVCAR-3; experiment: Antiproliferative activity against human OVCAR3 cells after 24 hrs by MTT assay; type: functional, cell-based; details: OVCAR-3, 24 h
readoutKind: pIC50
Kindly note that pIC50 refers to -log10 of the concentration in mol/L and answer with the value alone.

INSERT INTO measurements (molecule, readoutkind, reading) VALUES
  ('O=C(NNC(=O)c1ccccc1Cl)c1cccc(NS(=O)(=O)c2cnc(O)nc2O)c1', 'pIC50', 5.14),
  ('CCCCOc1ccc(C(=O)NNC(=O)c2ccc(NS(=O)(=O)c3cnc(O)nc3O)cc2)cc1', 'pIC50', 4.89),
  ('O=C(NNC(=O)c1cccc(Cl)c1)c1ccc(NS(=O)(=O)c2cnc(O)nc2O)cc1', 'pIC50', 5.11);

Now turn to the next compound.
Exercise: Retrieve pIC50 on OVCAR-3; query "O=C(NNC(=O)c1cccc(NS(=O)(=O)c2cnc(O)nc2O)c1)c1cccc(Cl)c1"
Key: 4.87

* * *

test system: SGC-7901; assay: Antiproliferative activity against human SGC7901 cells after 24 hrs by MTT assay; assay type: functional, cell-based; details: SGC-7901, 24 h
The reader will find reported pIC50 values listed item by item below.
Kindly note that pIC50 refers to -log10 of the concentration in mol/L and answer with the value alone.

INSERT INTO measurements (molecule, readoutkind, reading) VALUES
  ('O=C(NNC(=O)c1cccc(NS(=O)(=O)c2cnc(O)nc2O)c1)c1cccc(Cl)c1', 'pIC50', 5.14),
  ('O=C(NNC(=O)c1ccccc1Cl)c1cccc(NS(=O)(=O)c2cnc(O)nc2O)c1', 'pIC50', 5.22),
  ('CCCCOc1ccc(C(=O)NNC(=O)c2cccc(NS(=O)(=O)c3cnc(O)nc3O)c2)cc1', 'pIC50', 5.13),
  ('O=C(NNc1cccc(Cl)c1)c1ccc(NS(=O)(=O)c2cnc(O)nc2O)cc1', 'pIC50', 4.94),
  ('O=C(NNc1cccc(Cl)c1)c1cccc(NS(=O)(=O)c2cnc(O)nc2O)c1', 'pIC50', 4.93);

Exercise: Let me know recorded pIC50 for "Cc1ccc(C(=O)NNC(=O)c2ccccc2NS(=O)(=O)c2cnc(O)nc2O)cc1" , thanks.
Key: 4.81

Exercise: Let me know recorded pIC50 for "O=C(NNC(=O)c1ccccc1NS(=O)(=O)c1cnc(O)nc1O)c1cccc(Cl)c1" , thanks.
Key: 5.74

Exercise: Let me know recorded pIC50 for "O=C(NNC(=O)c1ccccc1Cl)c1ccc(NS(=O)(=O)c2cnc(O)nc2O)cc1" , thanks.
Key: 5.49

Exercise: Let me know recorded pIC50 for "CCCCOc1ccc(C(=O)NNC(=O)c2ccccc2NS(=O)(=O)c2cnc(O)nc2O)cc1" , thanks.
Key: 5.16

* * *

experiment: Selectivity index, ratio of CC50 for human HTB125 cells to IC50 for human A549 cells; type: toxicity; details: HTB125 cells (CC50) versus A549 cells (IC50)
readoutKind: selectivity ratio
# answer = number (no unit)

INSERT INTO results (molecule, reading) VALUES
  ('O=C(NNC(=O)c1ccccc1NS(=O)(=O)c1cnc(O)nc1O)c1cccc(Cl)c1', 5.73);

Exercise: Let me know recorded selectivity ratio for "Nc1nc2[nH]cc(CCc3ccc(C(=O)N[C@@H](CCC(=O)O)C(=O)O)cc3)c2c(=O)[nH]1" , thanks.
Key: 6.02

* * *

system: SGC-7901; test: Antiproliferative activity against human SGC7901 cells after 24 hrs by MTT assay; assay type: functional, cell-based; details: SGC-7901, 24 h
The reader will find reported IC50 values listed item by item below.

Previously resolved entries follow.
INSERT INTO results (molecule, reading) VALUES
  ('Cc1ccc(C(=O)NNC(=O)c2cccc(NS(=O)(=O)c3cnc(O)nc3O)c2)cc1', '10.1 µM'),
  ('Cc1ccccc1C(=O)NNC(=O)c1ccc(NS(=O)(=O)c2cnc(O)nc2O)cc1', '> 20 µM'),
  ('O=C(NNC(=O)c1ccccc1F)c1cccc(NS(=O)(=O)c2cnc(O)nc2O)c1', '> 20 µM'),
  ('Cc1cccc(NNC(=O)c2cccc(NS(=O)(=O)c3cnc(O)nc3O)c2)c1', '> 20 µM'),
  ('O=C(NNc1ccccc1Cl)c1ccc(NS(=O)(=O)c2cnc(O)nc2O)cc1', '3.63 µM'),
  ('Cc1cccc(NNC(=O)c2ccc(NS(=O)(=O)c3cnc(O)nc3O)cc2)c1', '> 20 µM'),
  ('O=C(NNC(=O)c1ccccc1NS(=O)(=O)c1cnc(O)nc1O)c1ccccc1Cl', '2.41 µM'),
  ('CCCCOc1ccc(C(=O)NNC(=O)c2ccc(NS(=O)(=O)c3cnc(O)nc3O)cc2)cc1', '14.7 µM'),
  ('O=C(NNc1ccc(F)cc1)c1ccc(NS(=O)(=O)c2cnc(O)nc2O)cc1', '> 20 µM'),
  ('O=C(NNC(=O)c1ccccc1NS(=O)(=O)c1cnc(O)nc1O)c1ccc(F)cc1', '> 20 µM');

Exercise: Let me know recorded IC50 for "O=C(NNc1cccc(Cl)c1)c1ccccc1NS(=O)(=O)c1cnc(O)nc1O" , thanks.
Key: 10.8 µM

Exercise: Let me know recorded IC50 for "Cc1ccccc1C(=O)NNC(=O)c1cccc(NS(=O)(=O)c2cnc(O)nc2O)c1" , thanks.
Key: > 20 µM

Exercise: Let me know recorded IC50 for "O=C(NNc1ccccc1Cl)c1ccccc1NS(=O)(=O)c1cnc(O)nc1O" , thanks.
Key: > 20 µM

Exercise: Let me know recorded IC50 for "Nc1nc2[nH]cc(CCc3ccc(C(=O)N[C@@H](CCC(=O)O)C(=O)O)cc3)c2c(=O)[nH]1" , thanks.
Key: 9.08 µM

* * *

The reader will find reported pIC50 values listed item by item below.
test system: OVCAR-3; experiment: Antiproliferative activity against human OVCAR3 cells after 24 hrs by MTT assay; assay type: functional, cell-based; conditions: OVCAR-3, 24 h
Kindly note that pIC50 refers to -log10 of the concentration in mol/L and answer with the value alone.

Previously resolved entries follow.
INSERT INTO measurements (molecule, readoutkind, reading) VALUES
  ('O=C(NNc1ccccc1Cl)c1cccc(NS(=O)(=O)c2cnc(O)nc2O)c1', 'pIC50', 5.47),
  ('O=C(NNc1cccc(Cl)c1)c1cccc(NS(=O)(=O)c2cnc(O)nc2O)c1', 'pIC50', 5.09),
  ('Cc1ccc(C(=O)NNC(=O)c2ccccc2NS(=O)(=O)c2cnc(O)nc2O)cc1', 'pIC50', 4.89),
  ('CCCCOc1ccc(C(=O)NNC(=O)c2ccccc2NS(=O)(=O)c2cnc(O)nc2O)cc1', 'pIC50', 5.30),
  ('O=C(NNc1cccc(Cl)c1)c1ccccc1NS(=O)(=O)c1cnc(O)nc1O', 'pIC50', 5.26),
  ('O=C(NNC(=O)c1ccccc1NS(=O)(=O)c1cnc(O)nc1O)c1ccc(F)cc1', 'pIC50', 4.82),
  ('O=C(NNc1ccccc1F)c1ccccc1NS(=O)(=O)c1cnc(O)nc1O', 'pIC50', 5.02),
  ('O=C(NNC(=O)c1ccccc1NS(=O)(=O)c1cnc(O)nc1O)c1ccccc1Cl', 'pIC50', 4.74),
  ('O=C(NNc1ccccc1Cl)c1ccccc1NS(=O)(=O)c1cnc(O)nc1O', 'pIC50', 4.85),
  ('O=C(NNc1ccccc1Cl)c1ccc(NS(=O)(=O)c2cnc(O)nc2O)cc1', 'pIC50', 5.14);

Exercise: Let me know recorded pIC50 for "O=C(NNC(=O)c1ccccc1Cl)c1ccc(NS(=O)(=O)c2cnc(O)nc2O)cc1" , thanks.
Key: 5.28

Exercise: Let me know recorded pIC50 for "Nc1nc2[nH]cc(CCc3ccc(C(=O)N[C@@H](CCC(=O)O)C(=O)O)cc3)c2c(=O)[nH]1" , thanks.
Key: 5.16

Exercise: Let me know recorded pIC50 for "O=C(NNC(=O)c1ccccc1NS(=O)(=O)c1cnc(O)nc1O)c1cccc(Cl)c1" , thanks.
Key: 5.68

Exercise: Let me know recorded pIC50 for "O=C(NNC(=O)c1ccccc1NS(=O)(=O)c1cnc(O)nc1O)c1ccccc1F" , thanks.
Key: 4.82

Exercise: Let me know recorded pIC50 for "O=C(NNC(=O)c1ccccc1F)c1cccc(NS(=O)(=O)c2cnc(O)nc2O)c1" , thanks.
Key: 4.97

Exercise: Let me know recorded pIC50 for "O=C(NNC(=O)c1ccccc1F)c1ccc(NS(=O)(=O)c2cnc(O)nc2O)cc1" , thanks.
Key: 4.80
